biological target: HEK 293 GPR73 (prokineticin 1 receptor) expressing cells (Homo sapiens); construct: expressed in transfected cells; host or cells: HEK 293; experiment: PK1 functional assay: screening for PK1 antagonists on the FLIPR (calcium fluorescence); format: cell-based; conditions: HEK293, compound at 10 μM, HEK 293 GPR73 cells, multiple values = repeat tests, read-out: Ca^2+ Mobilization % Inh @10 μM
assay-metric: inhibition at 10 µM (%)
One number for each entry, in %.

Some molecules with recorded inhibition at 10 µM:
> print(dat)
                                    molecule  numeric.readout
 1  COc1ccc(Cn2c(NCCNC(=N)Nc3cccnc3)nc(=O)n(Cc3ccc(Cl)c(Cl)c3)c2=O)cc1              101
 2  CCCCNC(=N)NCCNc1nc(=O)n(Cc2ccc(Cl)c(Cl)c2)c(=O)n1Cc1ccc(OC)cc1              102
 3  CCc1ccc(Cn2c(NCCNC(=N)N)nc(=O)n(Cc3ccc(Cl)c(Cl)c3)c2=O)cc1               98
 4  C=CCC(c1ccc(OC)cc1)n1c(=O)nc(NCCNC(=N)N)n(Cc2ccc(OC)cc2)c1=O (stereo not shown)               84
 5  COc1ccc(Cn2c(NCCNC(=N)N)nc(=O)n(Cc3ccc([N+](=O)[O-])cc3)c2=O)cc1               96
 6  COc1ccc(Cn2c(NCCNC(=N)NC(C)=O)nc(=O)n(Cc3ccc(F)cc3)c2=O)cc1               99
 7  N=C(N)NCCNc1nc(=O)n(Cc2ccc(Cl)c(Cl)c2)c(=O)n1Cc1ccc(OC2CCCC2)cc1               77
 8  COCCNC(=N)NCCNc1nc(=O)n(Cc2ccc(Cl)c(Cl)c2)c(=O)n1Cc1ccc(OC)cc1               99
 9  CCCCOc1ccc(Cn2c(NCCNC(=N)N)nc(=O)n(Cc3ccccc3)c2=O)cc1               41
10  COc1ccc(Cn2c(SCCNC(=N)N)cc(=O)n(Cc3ccc(OC)cc3)c2=O)cc1               98

Each of the following entries comes with a recorded value; kindly state inhibition at 10 µM for each.
1. COc1ccc(Cn2c(NCCNC(=N)Nc3ccc(OC)cc3)nc(=O)n(Cc3ccc(Cl)c(Cl)c3)c2=O)cc1
2. COc1ccc(Cn2c(NCCNC(=N)Nc3ccc4c(c3)OCO4)nc(=O)n(Cc3ccc(F)cc3)c2=O)cc1
3. COc1ccc(Cn2c(NCCNC(=N)N)nc(=O)n(CC(C)(C)C)c2=O)cc1
4. COc1ccc(Cn2c(NCCNC(=N)N)nc(=O)n(Cc3ccc(C(=O)O)cc3)c2=O)cc1
5. COc1ccc(Cn2c(NCCN(C)C(=N)N)nc(=O)n(Cc3ccc(Cl)c(Cl)c3)c2=O)cc1
6. COc1ccc(Cn2c(NCC(=O)NC(=N)NC(=O)OC(C)(C)C)nc(=O)n(Cc3ccc(F)cc3)c2=O)cc1

Solution:
[100, 97, 34, 33, 101, 54]

* * *

target: HEK 293 GPR73 (prokineticin 1 receptor) expressing cells (Homo sapiens, UniProt Q8TCW9); construct: expressed in transfected cells; host or cells: HEK 293; test: PK1 functional assay: screening for PK1 antagonists on the FLIPR (calcium fluorescence); format: cell-based; conditions: HEK293, compound at 10 μM, HEK 293 GPR73 cells, multiple values = repeat tests, read-out: Ca^2+ Mobilization % Inh @10 μM
Sequence (Q8TCW9 whole entry): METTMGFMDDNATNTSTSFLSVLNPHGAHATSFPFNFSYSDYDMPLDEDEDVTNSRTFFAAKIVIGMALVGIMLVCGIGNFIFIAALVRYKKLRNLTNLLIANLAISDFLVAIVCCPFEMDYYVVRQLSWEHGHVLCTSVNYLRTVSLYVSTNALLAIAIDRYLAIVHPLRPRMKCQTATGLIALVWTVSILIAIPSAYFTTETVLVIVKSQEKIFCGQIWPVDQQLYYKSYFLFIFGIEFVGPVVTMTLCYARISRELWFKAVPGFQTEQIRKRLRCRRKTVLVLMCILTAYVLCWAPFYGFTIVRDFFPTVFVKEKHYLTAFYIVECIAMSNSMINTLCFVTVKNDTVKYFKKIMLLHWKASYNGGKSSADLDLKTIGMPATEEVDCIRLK
assay-metric: inhibition at 10 µM (%)
One number for each entry, in %.

Some molecules with recorded inhibition at 10 µM:
> print(dat)
                                   molecule                          target.or.system         assay.metric  reading.unit  numeric.readout
1  N=C(N)NCCNc1nc(=O)n(Cc2ccc(Cl)c(Cl)c2)c(=O)n1Cc1ccc(C(N)=O)cc1 [Cpd 51]  HEK 293 GPR73 (prokineticin 1 receptor) expressing cells (Homo sapiens, UniProt Q8TCW9)  inhibition at 10 µM             %              100
2  COc1ccc(Cn2c(NCCNC(=N)N)nc(=O)n(Cc3csc(Cl)n3)c2=O)cc1 [Cpd 111]  HEK 293 GPR73 (prokineticin 1 receptor) expressing cells (Homo sapiens, UniProt Q8TCW9)  inhibition at 10 µM             %              100
3  N=C(N)NCCNc1nc(=O)n(Cc2ccc(Cl)c(Cl)c2)c(=O)n1Cc1cccc(OC(F)F)c1 [Cpd 57]  HEK 293 GPR73 (prokineticin 1 receptor) expressing cells (Homo sapiens, UniProt Q8TCW9)  inhibition at 10 µM             %               51

inhibition at 10 µM for HEK 293 GPR73 (prokineticin 1 receptor) expressing cells (Homo sapiens, UniProt Q8TCW9) with input COCCCNC(=N)NCCNc1nc(=O)n(Cc2ccc(F)cc2)c(=O)n1Cc1ccc(OC)cc1 [Cpd 115] equals 99

* * *

molecular target: HEK 293 GPR73 (prokineticin 1 receptor) expressing cells (Homo sapiens, UniProt Q8TCW9); assay: PK1 functional assay: screening for PK1 antagonists on the FLIPR (calcium fluorescence); conditions: HEK 293 GPR73 cells, PK1 ligand at EC50, multiple values = repeat tests, read-out: Ca^2+ Mobilization IC50
Record form. Attribute: pIC50. Fill in for each entry.
Give bare numbers, as −log10 of the molar value.

> print(dat)
                                   compound                          target.or.system  numeric.readout
1  COc1ccc(Cn2c(NCCNC(=N)N)nc(=O)n(C(C)c3ccc(OC)cc3)c2=O)cc1 (centres unmarked)  HEK 293 GPR73 (prokineticin 1 receptor) expressing cells (Homo sapiens, UniProt Q8TCW9)             7.15
2  COc1ccc(Cn2c(CCCNC(=N)N)cc(=O)n(Cc3ccc(OC)cc3)c2=O)cc1  HEK 293 GPR73 (prokineticin 1 receptor) expressing cells (Homo sapiens, UniProt Q8TCW9)             6.21
3  COc1ccc(Cn2c(NCCNC(=N)N)nc(=O)n(Cc3cccc(Cl)c3)c2=O)cc1  HEK 293 GPR73 (prokineticin 1 receptor) expressing cells (Homo sapiens, UniProt Q8TCW9)             6.04
4  CCOc1ccc(Cn2c(NCCNC(=N)N)nc(=O)n(Cc3ccc(F)cc3)c2=O)cc1  HEK 293 GPR73 (prokineticin 1 receptor) expressing cells (Homo sapiens, UniProt Q8TCW9)             7.39
5  COc1ccc(Cn2c(NCCNC3=NCCN3)nc(=O)n(Cc3ccc(Cl)c(Cl)c3)c2=O)cc1  HEK 293 GPR73 (prokineticin 1 receptor) expressing cells (Homo sapiens, UniProt Q8TCW9)             5.70

Looking up COc1ccc(Cn2c(NCCNC(=N)NC#N)nc(=O)n(Cc3ccc(Cl)c(Cl)c3)c2=O)cc1 , I see its pIC50 listed as 6.15

* * *

Molecular target: HEK 293 GPR73 (prokineticin 1 receptor) expressing cells (Homo sapiens)
Experiment: PK1 functional assay: screening for PK1 antagonists on the FLIPR (calcium fluorescence)
Conditions: HEK 293 GPR73 cells, PK1 ligand at EC50, multiple values = repeat tests, read-out: Ca^2+ Mobilization IC50
Experimental: At a time of 24 h prior to running the assay, in cell culture media (DMEM containing high Glucose and L-glutamine, 10% FBS, 1% Pen/Streptomycin, 1% Sodium Pyruvate, 20 mM HEPES, Zeocin 200 mg/L), 100 μL of 1.3*10^6/ml HEK 293 GPR73 (prokineticin 1 receptor) expressing cells were plated in a 96 well poly-d-lysine coated plate (Costar), and incubated at 37 C and 5% CO2. […] Baseline is described as the amount of relative fluorescence read when buffer alone is added to cells. […]
assay-metric: log10 IC50 (log10 of the value in nM)
Field: value | Transform: log10 | Quantity: IC50 | Unit: nM

> print(dat)
                                   compound  numeric.readout
1  COc1ccc(Cn2c(NCCNC(=N)N)nc(=O)n(Cc3cccc([N+](=O)[O-])c3)c2=O)cc1             3.68
2  C=CCC(c1ccc(OC)cc1)n1c(=O)nc(NCCNC(=N)N)n(Cc2ccc(OC)cc2)c1=O (centres unmarked)             2.70
3  COc1ccc(Cn2c(NCCNC(=N)N)nc(=O)n(Cc3ccco3)c2=O)cc1             3.41
4  COc1ccc(Cn2c(NCCNC(=N)N)nc(=O)n(Cc3ccc(OC(F)F)cc3)c2=O)cc1             1.85
5  NC(N)=NCCNc1nc(=O)n(Cc2ccc(Cl)cc2)c(=O)n1Cc1ccccc1 [Cpd 149]             3.68
6  COc1ccc(Cn2c(NCCNC(=N)N(C)c3ccccc3)nc(=O)n(Cc3ccc(F)cc3)c2=O)cc1             1.92

log10 IC50 for HEK 293 GPR73 (prokineticin 1 receptor) expressing cells (Homo sapiens) with input COc1ccc(Cn2c(=O)nc(NCCNC(=N)N)n(Cc3ccc(OC)nc3)c2=O)cc1 equals 1.71
